# assayed target: human RIP1 kinase domain (2-375) (Homo sapiens (Human))
# Sequence (Q13546 2-375): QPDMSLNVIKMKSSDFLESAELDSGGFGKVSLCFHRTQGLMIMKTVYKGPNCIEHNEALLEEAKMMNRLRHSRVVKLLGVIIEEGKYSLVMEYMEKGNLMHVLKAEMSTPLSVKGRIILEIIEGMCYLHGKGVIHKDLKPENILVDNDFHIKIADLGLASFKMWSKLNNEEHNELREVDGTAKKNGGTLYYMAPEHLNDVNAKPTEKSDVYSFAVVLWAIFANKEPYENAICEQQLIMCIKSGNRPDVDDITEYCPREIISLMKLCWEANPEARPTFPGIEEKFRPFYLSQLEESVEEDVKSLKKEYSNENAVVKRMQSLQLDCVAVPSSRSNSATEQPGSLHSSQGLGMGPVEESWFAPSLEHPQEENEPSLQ
# test details: biochemical
# Format: biochemical
# condition notes: tight-binding apparent inhibition constant; human RIP1 kinase domain (2-375) 50 nM, 50 uM ATP, 2 hours; read-out: Ki
// assign T if Ki falls strictly below 200 nM, else F (ties count as F)

Examples with answers:
**Query** A record lists CN1C(=O)[C@@H](NC(=O)c2nc3n(n2)C(c2c(F)cccc2F)CCC3)CCn2nccc21 (stereo partly shown) [Example 396] . Is its Ki below 200 nM?
**Result** T

**Query** A record lists Cc1nc(C)n2c1N(C)C(=O)[C@H](NC(=O)c1ncn(Cc3cc(F)ccc3F)n1)CC2 [Example 598] . Is its Ki below 200 nM?
**Result** T

**Query** A record lists Cc1cc(F)c2c(c1)OC[C@H](NC(=O)c1nc3cccc(C(C)C)n3n1)C(=O)N2 [Example 423] . Is its Ki below 200 nM?
**Result** T

**Query** A record lists Cc1cc2n(n1)CC[C@H](NC(=O)c1nc3n(n1)CCC31CCOCC1)C(=O)N2C [Example 635] . Is its Ki below 200 nM?
**Result** F

**Query** A record lists CN1C(=O)[C@@H](NC(=O)c2ncc3cnn(C4CCCC4)c3n2)COc2ccccc21 [Example 485] . Is its Ki below 200 nM?
**Result** T

New cases:
**Query** A record lists CN1C(=O)[C@@H](NC(=O)c2nc3cccc(-c4ccoc4)n3n2)COc2ccccc21 [Example 399] . Is its Ki below 200 nM?
**Result** T

**Query** A record lists CN1C(=O)C(NC(=O)c2ncn(Cc3ccccc3)n2)CCn2nc(CN3CC(F)C3)cc21 (single isomer, unassigned) [Example 450] . Is its Ki below 200 nM?
**Result** F
